Sourced from paper PMC8769072

For each of the binders below, state its IC50.
# Assay Target: TLN1 PTB (talin-1, phosphotyrosine binding-like domain) (human) (UniProt Q9Y490)
# Sequence (Q9Y490 whole entry, the tested form may be a part): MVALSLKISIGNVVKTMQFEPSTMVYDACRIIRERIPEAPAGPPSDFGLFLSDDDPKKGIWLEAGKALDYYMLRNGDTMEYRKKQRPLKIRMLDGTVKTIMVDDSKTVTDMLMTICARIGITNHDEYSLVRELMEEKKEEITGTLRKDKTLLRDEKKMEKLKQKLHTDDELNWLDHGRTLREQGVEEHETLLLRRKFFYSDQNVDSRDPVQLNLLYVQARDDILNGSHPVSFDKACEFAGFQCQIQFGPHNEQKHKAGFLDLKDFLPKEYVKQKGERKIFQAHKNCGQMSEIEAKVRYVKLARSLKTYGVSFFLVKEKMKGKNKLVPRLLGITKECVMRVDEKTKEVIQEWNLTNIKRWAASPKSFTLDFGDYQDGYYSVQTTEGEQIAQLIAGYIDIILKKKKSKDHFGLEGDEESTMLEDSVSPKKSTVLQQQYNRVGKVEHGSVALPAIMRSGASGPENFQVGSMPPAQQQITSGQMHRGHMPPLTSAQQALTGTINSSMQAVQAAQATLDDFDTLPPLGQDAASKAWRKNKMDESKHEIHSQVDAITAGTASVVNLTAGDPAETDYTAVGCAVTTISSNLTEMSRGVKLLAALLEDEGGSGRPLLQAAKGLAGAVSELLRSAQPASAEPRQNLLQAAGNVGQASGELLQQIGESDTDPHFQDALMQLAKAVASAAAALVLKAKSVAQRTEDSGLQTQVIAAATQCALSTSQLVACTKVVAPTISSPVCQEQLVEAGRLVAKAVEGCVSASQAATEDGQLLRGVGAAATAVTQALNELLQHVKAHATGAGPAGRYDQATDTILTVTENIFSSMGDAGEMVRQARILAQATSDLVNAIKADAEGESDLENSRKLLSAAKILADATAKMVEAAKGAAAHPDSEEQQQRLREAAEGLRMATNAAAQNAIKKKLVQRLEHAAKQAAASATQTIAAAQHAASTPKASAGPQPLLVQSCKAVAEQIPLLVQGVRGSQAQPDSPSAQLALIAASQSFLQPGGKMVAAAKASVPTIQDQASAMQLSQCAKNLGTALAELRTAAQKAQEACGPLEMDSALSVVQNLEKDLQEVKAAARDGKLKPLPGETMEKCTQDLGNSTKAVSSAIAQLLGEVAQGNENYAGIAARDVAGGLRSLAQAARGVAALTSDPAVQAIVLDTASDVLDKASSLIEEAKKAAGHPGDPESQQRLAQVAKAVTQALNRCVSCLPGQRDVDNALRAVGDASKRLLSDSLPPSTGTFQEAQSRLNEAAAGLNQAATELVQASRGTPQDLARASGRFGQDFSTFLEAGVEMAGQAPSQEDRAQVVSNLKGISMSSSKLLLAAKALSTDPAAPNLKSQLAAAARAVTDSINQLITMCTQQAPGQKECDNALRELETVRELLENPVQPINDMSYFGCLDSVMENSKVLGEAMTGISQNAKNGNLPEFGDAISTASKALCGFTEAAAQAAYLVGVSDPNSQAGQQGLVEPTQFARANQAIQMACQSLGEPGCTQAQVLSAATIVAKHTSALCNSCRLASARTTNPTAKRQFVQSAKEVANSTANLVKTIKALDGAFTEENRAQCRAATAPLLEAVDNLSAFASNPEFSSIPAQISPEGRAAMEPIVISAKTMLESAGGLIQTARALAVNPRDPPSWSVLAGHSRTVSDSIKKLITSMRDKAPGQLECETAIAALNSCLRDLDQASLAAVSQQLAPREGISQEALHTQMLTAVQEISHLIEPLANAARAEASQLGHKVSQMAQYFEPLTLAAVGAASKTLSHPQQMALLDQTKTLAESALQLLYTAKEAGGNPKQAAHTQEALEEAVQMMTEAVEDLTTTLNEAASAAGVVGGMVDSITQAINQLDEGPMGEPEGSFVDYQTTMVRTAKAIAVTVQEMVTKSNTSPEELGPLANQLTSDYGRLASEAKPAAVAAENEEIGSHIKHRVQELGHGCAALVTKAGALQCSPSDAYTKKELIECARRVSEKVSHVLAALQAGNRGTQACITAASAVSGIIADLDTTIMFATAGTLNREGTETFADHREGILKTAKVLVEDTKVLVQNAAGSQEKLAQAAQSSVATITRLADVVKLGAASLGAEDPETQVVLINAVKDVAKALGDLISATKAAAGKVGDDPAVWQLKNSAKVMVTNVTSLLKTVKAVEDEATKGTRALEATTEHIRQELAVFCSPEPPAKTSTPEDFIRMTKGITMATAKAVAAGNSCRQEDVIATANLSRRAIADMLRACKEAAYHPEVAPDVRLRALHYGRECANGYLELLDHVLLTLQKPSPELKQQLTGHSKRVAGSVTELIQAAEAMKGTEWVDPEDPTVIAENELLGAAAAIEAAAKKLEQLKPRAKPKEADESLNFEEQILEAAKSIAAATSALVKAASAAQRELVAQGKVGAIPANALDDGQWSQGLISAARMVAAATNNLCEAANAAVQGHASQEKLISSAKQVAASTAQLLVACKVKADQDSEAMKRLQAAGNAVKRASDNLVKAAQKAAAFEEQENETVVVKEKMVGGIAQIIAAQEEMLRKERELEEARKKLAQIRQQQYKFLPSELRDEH
# Experiment Notes: fluorescence polarisation; competition: unlabelled peptide in serial dilution against the protein domain (master mix at four times the KD) with its FITC-labelled probe peptide; 50 mM KPO4 or NaPO4 pH 7.5; Ki calculated from IC50
Where no end group is shown, it is not given here.
Answers are plain numbers, in µM.

DLIFTDSKLYIPLE-NH2 [TPTE 112-125 peptide] = 15

For each of the items listed, what is its IC50?
1. FPTDERSWVYSPLHYS-NH2 [PIP5K1C 640-655 peptide, unlabelled]
2. AKWDTANNPLYKEATS-NH2 [Integrin beta-3 763-778 peptide]
3. VGPLTPLWTYPATAAG-NH2 [NYAP1 542-557 peptide]

1: 0.42; 2: 1430; 3: 62
